- Test system: MS2 coat protein
- procedure-text: apparent KD of MS2 coat protein; designed switch direction (-1 OFF switch, 1 ON switch): 1; higher = weaker reporter binding
- experimental-setup: input ligand: microRNA oligo, concentration not stated
Label MET for high-side apparent KD of MS2 coat protein (at or above 80 nM) and NOT MET for low-side apparent KD of MS2 coat protein (below it).

chain	assigned-label
CGGACUCCCUUAGGAUAUGGGAAAGGAAGUGUACCAGAAGGAAGGGUUCCGAUCCUCCAACAUGAGGAUCACCCAUGUAUGAGG [PowerStrip SSNG 1.3] (Eterna round: R96, puzzle: Same State NG 1)	NOT MET
AUAGUUUCCGAAGGAUAUGAUGAGGAUCACCCAUCAGAAGGUUGGCUAUUGGGCUGACAUGAGGAUCACCCAUGUUCUGGUGUU (Eterna round: R96, puzzle: Same State NG 1)	NOT MET
UUAAUAAAUCAAGGAUAUCACGUCGAUUAGACGUGAGAAGGUGAUCAUAACAUGAGGAUCACCCAUGUAUUACAUGAAUAUUAA [SSNG1/1-B2] (Eterna round: R96, puzzle: Same State NG 1)	MET

IN: Dear colleague, could you confirm whether UUACUCAUGUAAGGAUAUGCAGCCGUUUCGGCUGCAGAAGGUACUAUAAUACAUGAGGAUCACCCAUGUCUAUAAAAUAAAGAC [Mat - Same State NG 1 - JL mod - D81] (Eterna round: R96, puzzle: Same State NG 1) has apparent KD of MS2 coat protein at or above 80 nM?
OUT: NOT MET

IN: Given the entry UUUUUGAUCCGAGGAUAUCCUUUUUUCUUACAUGAGGAUCACCCAUGUAAAGGGAUUGAGUUGUAGGAGAAGGCGGUUUUUGUU [JR_SSNG2_Sub059] (Eterna round: R96, puzzle: Same State NG 2) , answer whether its apparent KD of MS2 coat protein meets or surpasses 80 nM.
OUT: NOT MET

IN: State whether the measured apparent KD of MS2 coat protein reaches 80 nM, counting equality as reaching it, for GCAAACACAUGAGGAUCACCCAUGUGGAAAGAGCAAUUAGGCUAGGAUAUUCAUGUCGUUUGCAAGAAGAAGGAGCCAUAGUGG [Eternabot solution 20] (Eterna round: R96, puzzle: Same State NG 3)
OUT: MET

IN: Check this sequence for apparent KD of MS2 coat protein at or above 80 nM: GCUACCAAAUAAGCCAACAUGAGGAUCACCCAUGUAUGUUGGUAGGAUAUCGUAUGCAAAGCAUACGAGAAGGGCUAAGGUAGC [Mat - Same State NG 3 - JL Mod - D80] (Eterna round: R96, puzzle: Same State NG 3)
OUT: NOT MET

IN: Dear colleague, could you confirm whether AGGCUGAGUCGAGGAUAUUAUGGAUCCUCUAAUACAUGAGGAUCACCCAUGUAAUUAAUUAUACAUGAGAAGGCGACUCAGCCU [SSNG2/12-A4] (Eterna round: R96, puzzle: Same State NG 2) has apparent KD of MS2 coat protein at or above 80 nM?
OUT: NOT MET
